Tested on: Escherichia coli TOP10
Assay: shrunken log2 fold change of peptide-encoding DNA abundance (4.5 h post-induction vs induction); higher = less antimicrobial activity (less host growth inhibition)
Settings: time post-induction: 4.5 h; library: site-saturation at positions 5, 18, 19, 20
Measured shrunken log2 fold change accompanies every entry in the list below.
metric: shrunken log2 fold change

1) RRIRRRPPRLPRPRPRPEWIPRP
0.361
2) RRIRPRPPRLPRPRPRPGYGPRP
0.0799
3) RRIRRRPPRLPRPRPRPHKPPRP
-0.176
4) RRIRWRPPRLPRPRPRPWCHPRP
-0.422

###

Reported values of shrunken log2 fold change for individual entries
Test system: Escherichia coli TOP10
Test: shrunken log2 fold change of peptide-encoding DNA abundance (4.5 h post-induction vs induction); higher = less antimicrobial activity (less host growth inhibition)
Conditions: time post-induction: 4.5 h; library: site-saturation at positions 5, 18, 19, 20
metric: shrunken log2 fold change

1. RRIRDRPPRLPRPRPRPYYLPRP
-0.134
2. RRIRFRPPRLPRPRPRPMCLPRP
-0.564
3. RRIRQRPPRLPRPRPRPSAVPRP
-0.126
4. RRIRARPPRLPRPRPRPWWQPRP
0.00618

###

System: Escherichia coli TOP10
Assay: shrunken log2 fold change of peptide-encoding DNA abundance (4.5 h post-induction vs induction); higher = less antimicrobial activity (less host growth inhibition)
Settings: time post-induction: 4.5 h; library: site-saturation at positions 5, 18, 19, 20
metric: shrunken log2 fold change

1) RRIRHRPPRLPRPRPRPRSVPRP
0.0714
2) RRIRRRPPRLPRPRPRPHDHPRP
3.24
3) RRIRFRPPRLPRPRPRPEVHPRP
-0.309
4) RRIRSRPPRLPRPRPRPNCGPRP
-0.146
5) RRIRVRPPRLPRPRPRPIGQPRP
0.0922
6) RRIRERPPRLPRPRPRPPEFPRP
0.127
7) RRIRDRPPRLPRPRPRPPSMPRP
-0.147
8) RRIRWRPPRLPRPRPRPVCWPRP
0.758
9) RRIRNRPPRLPRPRPRPETGPRP
2.57
10) RRIRYRPPRLPRPRPRPYDHPRP
-0.474
11) RRIRARPPRLPRPRPRPETGPRP
0.772
12) RRIRTRPPRLPRPRPRPIHYPRP
-0.356
13) RRIRTRPPRLPRPRPRPWAKPRP
0.057
14) RRIRERPPRLPRPRPRPSTNPRP
-0.317
15) RRIRPRPPRLPRPRPRPFQYPRP
-0.179
16) RRIRYRPPRLPRPRPRPKRNPRP
-0.374
17) RRIRYRPPRLPRPRPRPSQTPRP
-0.0989
18) RRIRLRPPRLPRPRPRPDAGPRP
0.0316
19) RRIRKRPPRLPRPRPRPYNLPRP
-0.119
20) RRIRWRPPRLPRPRPRPEIYPRP
0.21
21) RRIRKRPPRLPRPRPRPETSPRP
1.02
22) RRIRERPPRLPRPRPRPMKFPRP
-0.0657
23) RRIRFRPPRLPRPRPRPDKDPRP
-0.393
24) RRIRRRPPRLPRPRPRPEARPRP
0.172
25) RRIRNRPPRLPRPRPRPPFQPRP
0.0529

###

System: Escherichia coli TOP10
Assay: shrunken log2 fold change of peptide-encoding DNA abundance (4.5 h post-induction vs induction); higher = less antimicrobial activity (less host growth inhibition)
Settings: time post-induction: 4.5 h; library: site-saturation at positions 5, 18, 19, 20
Label n if shrunken log2 fold change falls below -0.3; label y in every other case.

1) RRIRDRPPRLPRPRPRPYLNPRP
y
2) RRIRHRPPRLPRPRPRPLFIPRP
n
3) RRIRRRPPRLPRPRPRPTFWPRP
y
4) RRIRERPPRLPRPRPRPQIDPRP
y
5) RRIRQRPPRLPRPRPRPCRDPRP
y
6) RRIRFRPPRLPRPRPRPGVKPRP
y
7) RRIRVRPPRLPRPRPRPKDTPRP
y
8) RRIRDRPPRLPRPRPRPGFYPRP
y
9) RRIRLRPPRLPRPRPRPMTWPRP
n
10) RRIRYRPPRLPRPRPRPCGIPRP
y
11) RRIRDRPPRLPRPRPRPTYNPRP
n
12) RRIRHRPPRLPRPRPRPTIPPRP
y
13) RRIRGRPPRLPRPRPRPSRHPRP
y
14) RRIRSRPPRLPRPRPRPSNKPRP
n
15) RRIRSRPPRLPRPRPRPLPSPRP
y
16) RRIRMRPPRLPRPRPRPTYNPRP
n
17) RRIRMRPPRLPRPRPRPGGYPRP
y
18) RRIRPRPPRLPRPRPRPAWMPRP
y
19) RRIRVRPPRLPRPRPRPYYHPRP
n
20) RRIRCRPPRLPRPRPRPDHCPRP
y
21) RRIRPRPPRLPRPRPRPHMPPRP
y

###

The entries below come with measured shrunken log2 fold change values attached.
System: Escherichia coli TOP10
Experiment: shrunken log2 fold change of peptide-encoding DNA abundance (4.5 h post-induction vs induction); higher = less antimicrobial activity (less host growth inhibition)
Conditions: time post-induction: 4.5 h; library: site-saturation at positions 5, 18, 19, 20
metric: shrunken log2 fold change

1) RRIRNRPPRLPRPRPRPYLEPRP
-0.00618
2) RRIRERPPRLPRPRPRPLQRPRP
-0.131
3) RRIRTRPPRLPRPRPRPWPFPRP
-0.0102
4) RRIRGRPPRLPRPRPRPMFWPRP
0.336
5) RRIRQRPPRLPRPRPRPLFDPRP
-0.607
6) RRIRMRPPRLPRPRPRPGEGPRP
1.23
7) RRIRQRPPRLPRPRPRPFDAPRP
-0.0632
8) RRIRSRPPRLPRPRPRPWTKPRP
-0.137
9) RRIRYRPPRLPRPRPRPVNKPRP
-0.0557
10) RRIRRRPPRLPRPRPRPCCGPRP
0.0161
11) RRIRRRPPRLPRPRPRPNNCPRP
0.129
12) RRIRLRPPRLPRPRPRPCLNPRP
-0.0428
13) RRIRRRPPRLPRPRPRPYQWPRP
-0.244
14) RRIRERPPRLPRPRPRPHLKPRP
-0.268
15) RRIRGRPPRLPRPRPRPCQGPRP
0.242
16) RRIRWRPPRLPRPRPRPTMKPRP
-0.0612
17) RRIRKRPPRLPRPRPRPFNTPRP
-0.0902
18) RRIRYRPPRLPRPRPRPNDWPRP
-0.116
19) RRIRSRPPRLPRPRPRPTPVPRP
0.381
20) RRIRVRPPRLPRPRPRPIGKPRP
-0.129
21) RRIRRRPPRLPRPRPRPDDMPRP
-0.039

###

System: Escherichia coli TOP10;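 note: peptides expressed intracellularly from a pBAD plasmid library in pooled LB shake-flask culture, induced with 0.3% L-arabinose, DNA abundance read by NGS, three biological replicates, DESeq2 with apeglm shrinkage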
Assay: shrunken log2 fold change of peptide-encoding DNA abundance (4.5 h post-induction vs induction); higher = less antimicrobial activity (less host growth inhibition)
Settings: time post-induction: 4.5 h; library: site-saturation at positions 5, 18, 19, 20
Overview of reported shrunken log2 fold change across a group of sequences:
metric: shrunken log2 fold change

1. RRIRDRPPRLPRPRPRPFHMPRP
0.0426
2. RRIRSRPPRLPRPRPRPFVNPRP
-0.99
3. RRIRWRPPRLPRPRPRPFVCPRP
-0.108
4. RRIRYRPPRLPRPRPRPGSCPRP
-0.308
5. RRIRFRPPRLPRPRPRPDMCPRP
0.124
6. RRIRDRPPRLPRPRPRPKKIPRP
0.0726
7. RRIRRRPPRLPRPRPRPPLWPRP
0.883
8. RRIRFRPPRLPRPRPRPKATPRP
-0.061
9. RRIRGRPPRLPRPRPRPQHRPRP
0.212
10. RRIRTRPPRLPRPRPRPHRAPRP
0.0171
11. RRIRQRPPRLPRPRPRPYQAPRP
-0.232
12. RRIRKRPPRLPRPRPRPSQAPRP
-0.0142
13. RRIRGRPPRLPRPRPRPLWLPRP
0.574
14. RRIRDRPPRLPRPRPRPVYTPRP
-0.0405
15. RRIRRRPPRLPRPRPRPKFKPRP
-0.046
16. RRIRARPPRLPRPRPRPRVDPRP
0.419
17. RRIRDRPPRLPRPRPRPGVGPRP
0.519
18. RRIRIRPPRLPRPRPRPVFMPRP
-0.275
19. RRIRYRPPRLPRPRPRPQPHPRP
-0.348
20. RRIRKRPPRLPRPRPRPKNFPRP
-0.148
21. RRIRYRPPRLPRPRPRPAVYPRP
-0.0166
22. RRIRRRPPRLPRPRPRPSINPRP
-0.13
23. RRIRERPPRLPRPRPRPTITPRP
-0.598
24. RRIRKRPPRLPRPRPRPGHHPRP
0.228
25. RRIRGRPPRLPRPRPRPLKLPRP
0.164
26. RRIRCRPPRLPRPRPRPEDSPRP
0.00322
27. RRIRIRPPRLPRPRPRPEGQPRP
-0.0492
28. RRIRARPPRLPRPRPRPHNNPRP
-0.363
29. RRIRKRPPRLPRPRPRPKRLPRP
0.0257
30. RRIRRRPPRLPRPRPRPEKNPRP
0.289
31. RRIRYRPPRLPRPRPRPEGRPRP
0.172
32. RRIRFRPPRLPRPRPRPNWPPRP
0.333
33. RRIRHRPPRLPRPRPRPTYKPRP
-0.333
34. RRIRPRPPRLPRPRPRPPVWPRP
0.27
35. RRIRCRPPRLPRPRPRPQVDPRP
0.0243
36. RRIRHRPPRLPRPRPRPPGTPRP
0.0679
37. RRIRKRPPRLPRPRPRPTIMPRP
-0.0223
38. RRIRGRPPRLPRPRPRPLETPRP
0.985
39. RRIRDRPPRLPRPRPRPEKAPRP
0.236
40. RRIRSRPPRLPRPRPRPERWPRP
1.14
41. RRIRGRPPRLPRPRPRPCRVPRP
-0.0297
42. RRIRPRPPRLPRPRPRPLCTPRP
1.09
43. RRIRYRPPRLPRPRPRPNPWPRP
-0.189
44. RRIRVRPPRLPRPRPRPLRDPRP
0.725
45. RRIRCRPPRLPRPRPRPKIVPRP
-0.29
46. RRIRWRPPRLPRPRPRPHFIPRP
-0.349
47. RRIRCRPPRLPRPRPRPSYMPRP
-0.646
48. RRIRSRPPRLPRPRPRPEDIPRP
-0.0081
49. RRIRYRPPRLPRPRPRPICKPRP
-0.193

Where these numbers come from: the supplement of paper PMC9112550
